Form field: IC50 (one value per entry).
molecular target: CYP2D6 (Homo sapiens, UniProt P10635); construct: from tissue; host or cells: human liver microsomes (pooled in the time-dependent assay); experiment: direct inhibition of CYP450 in human liver microsomes; format: in vitro ADME; settings: estimated from 3, 10, 50 uM, read-out: CYP2D6 T0 estimated IC50
Sequence (P10635 whole entry): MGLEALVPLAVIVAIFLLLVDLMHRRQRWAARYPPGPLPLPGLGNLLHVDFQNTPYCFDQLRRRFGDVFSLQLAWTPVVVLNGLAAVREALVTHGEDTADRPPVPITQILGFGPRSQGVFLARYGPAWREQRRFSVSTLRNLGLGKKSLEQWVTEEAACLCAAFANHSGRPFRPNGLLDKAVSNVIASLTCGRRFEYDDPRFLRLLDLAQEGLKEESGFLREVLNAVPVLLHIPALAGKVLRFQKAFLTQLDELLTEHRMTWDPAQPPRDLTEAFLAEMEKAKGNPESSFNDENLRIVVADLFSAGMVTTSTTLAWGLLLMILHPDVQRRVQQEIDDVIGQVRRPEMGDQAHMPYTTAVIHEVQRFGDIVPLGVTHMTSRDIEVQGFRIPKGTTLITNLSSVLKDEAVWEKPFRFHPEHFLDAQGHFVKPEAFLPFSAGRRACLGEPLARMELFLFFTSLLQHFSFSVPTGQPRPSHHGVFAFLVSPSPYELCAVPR

Query: I would be grateful if you could share the reported IC50 for Cn1cncc1-c1ccnc(C(=O)N[C@H]2CC[C@H](O)CC2)n1 [Compound 256] .
Response: > 50 µM

Query: Item under review: [2H]c1nc([2H])n(-c2nc(C)cc(C(=O)N[C@H]3CC[C@H](OCCOC)CC3)n2)c1[2H] [Comparator Compound A, reference compound] . Reported IC50?
Response: < 50 µM

# input for lookup
Query: Tell me the measured IC50 of Cn1cncc1-c1ccnc(C(=O)Nc2ccc(C(C)(C)O)nc2)n1 [Compound 250] , please.
Response: < 50 µM

---

molecular target: endogenous CD38 in HL60 cells (Homo sapiens, UniProt P28907); construct: endogenous in cells; test: cellular CD38 assay in HL60 cells (cellular NAD levels); settings: all-trans retinoic acid, 24 hours, read-out: hCD38 HL60 ATRA NAD Cell Diaphorase IC50
Sequence (P28907 whole entry): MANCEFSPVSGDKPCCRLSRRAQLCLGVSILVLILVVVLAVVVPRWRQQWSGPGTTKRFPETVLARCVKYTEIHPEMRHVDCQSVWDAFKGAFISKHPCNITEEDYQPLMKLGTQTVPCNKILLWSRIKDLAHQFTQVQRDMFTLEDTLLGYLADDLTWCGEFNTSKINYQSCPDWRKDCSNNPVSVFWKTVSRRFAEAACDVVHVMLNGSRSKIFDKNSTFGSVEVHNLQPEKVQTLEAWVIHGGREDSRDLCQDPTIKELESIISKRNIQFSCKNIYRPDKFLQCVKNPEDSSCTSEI
// values below are reported pIC50
// scale note: pIC50 = -log10(conc_M); give the bare number

Consider the following illustrative entries.
Query: Fill in the blank: the reported pIC50 of `O=C(Nc1ccc(C(F)F)nc1)c1ccnc(-c2cncs2)n1` is ____.
Response: 5.36

Query: What pIC50 value was documented for this compound, `O=C(N[C@H]1C[C@H](c2ccc(F)cc2F)C1)c1nccc(-n2ccnc2)n1` ?
Response: 5.50

Query: Give the measured pIC50 of `Cn1cncc1-c1ccnc(C(=O)N[C@H]2C[C@H](c3ccc(F)cc3F)C2)n1` .
Response: 5.43

Query: Need pIC50 of `COCCO[C@H]1CC[C@H](NC(=O)c2cc(C)nc(-c3cncn3C)n2)CC1` , thanks.
Response: 5.64

Query: Find the recorded pIC50 belonging to `CO[C@H]1CC[C@H](NC(=O)c2cc(C3CCC(F)(F)CC3)nc(-c3cncn3C)n2)CC1` and report it.
Response: 5.72

Query: Looking for the measured pIC50 of `COCCO[C@H]1CC[C@H](NC(=O)c2nc(OC)cc(-c3cncn3C)n2)CC1` , can you help?
Response: 4.99

Query: # query: pIC50 of entry `Cn1cncc1-c1nc(C(=O)Nc2ccc(C(F)(F)F)nc2)cc(C2CCC(F)(F)CC2)n1`
Response: 5.91

Query: Entry `COc1cc(C(=O)Nc2ccc(C(F)F)nc2)nc(-c2cncn2C)n1` has what pIC50?
Response: 6.57

---
Query: Which measured pIC50 value corresponds to `Cn1cncc1-c1ccnc(C(=O)N[C@H]2CC[C@](O)(c3ccccc3)CC2)n1` ?
Response: 5.31

Query: Name the reported pIC50 value associated with the compound `O=C(Nc1ccc(C(F)(F)F)nc1)c1ccc(F)c(-n2ccnc2)n1`
Response: 6.17

Query: Please give the measured pIC50 for this compound: `CCO[C@H]1CC[C@H](NC(=O)c2nccc(-n3ccnc3)n2)CC1`
Response: 5.25

Query: May I ask what pIC50 has been recorded for `Cc1cc(C(=O)N[C@H]2CC[C@H](C(F)F)CC2)nc(-c2cncn2C)c1` ?
Response: 5.29

Query: Which pIC50 is listed for `Cc1cc(C(F)(F)F)ncc1NC(=O)c1cccc(-n2ccnc2)n1` ?
Response: 5.07

---

biological target: CYP2C9 (Homo sapiens); construct: from tissue; host or cells: human liver microsomes (pooled in the time-dependent assay); experiment: time dependent inhibition of CYP450 in pooled human microsomes; type: in vitro ADME; conditions: pre-incubation 30 min (NADPH)
Sequence (P11712 whole entry): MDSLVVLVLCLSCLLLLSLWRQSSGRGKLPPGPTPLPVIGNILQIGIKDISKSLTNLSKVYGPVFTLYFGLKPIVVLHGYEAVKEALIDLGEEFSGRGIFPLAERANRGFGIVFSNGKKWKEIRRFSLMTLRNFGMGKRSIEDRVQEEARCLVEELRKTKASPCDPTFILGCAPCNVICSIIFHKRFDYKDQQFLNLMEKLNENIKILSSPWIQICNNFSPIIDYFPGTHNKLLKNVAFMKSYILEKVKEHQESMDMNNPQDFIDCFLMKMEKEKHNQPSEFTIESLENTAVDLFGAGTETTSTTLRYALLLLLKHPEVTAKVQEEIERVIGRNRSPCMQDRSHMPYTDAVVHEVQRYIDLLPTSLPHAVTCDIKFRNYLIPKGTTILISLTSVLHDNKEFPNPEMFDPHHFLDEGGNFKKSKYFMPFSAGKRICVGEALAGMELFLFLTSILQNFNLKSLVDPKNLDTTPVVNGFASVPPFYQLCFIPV
pIC50: −log10 of the molar value.
readout: pIC50

Query: Write down the reported pIC50 of `CO[C@H]1CC[C@H](NC(=O)c2nccc(-c3cncn3C)n2)CC1` , test system: CYP2C9 (Homo sapiens).
Response: < 4.52

---

biological target: CYP3A4 (Homo sapiens); construct: from tissue; host or cells: human liver microsomes (pooled in the time-dependent assay); assay: direct inhibition of CYP450 in human liver microsomes (midazolam and testosterone probes); assay type: in vitro ADME; conditions: 10 uM, testosterone probe, read-out: CYP3A4-T T0 % activity
Sequence (P08684 whole entry): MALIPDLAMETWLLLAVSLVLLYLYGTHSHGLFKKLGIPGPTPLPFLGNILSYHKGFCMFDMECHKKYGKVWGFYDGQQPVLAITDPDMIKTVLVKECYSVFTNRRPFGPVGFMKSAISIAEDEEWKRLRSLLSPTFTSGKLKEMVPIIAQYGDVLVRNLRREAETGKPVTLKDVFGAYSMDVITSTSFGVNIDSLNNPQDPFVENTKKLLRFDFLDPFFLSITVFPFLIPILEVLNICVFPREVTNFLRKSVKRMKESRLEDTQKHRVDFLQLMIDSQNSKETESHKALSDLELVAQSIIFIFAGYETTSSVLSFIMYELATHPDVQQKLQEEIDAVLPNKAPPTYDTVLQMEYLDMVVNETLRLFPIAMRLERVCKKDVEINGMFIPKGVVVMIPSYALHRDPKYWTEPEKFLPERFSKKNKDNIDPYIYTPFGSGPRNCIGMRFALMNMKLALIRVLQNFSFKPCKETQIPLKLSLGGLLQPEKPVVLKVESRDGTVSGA
Reported values of activity at 10 µM for individual entries
Answer format: numeric, % implied, no suffix.

Query: Look up activity at 10 µM with CYP3A4 (Homo sapiens) for this compound: `Cn1cncc1-c1ccnc(C(=O)Nc2ccc(C(C)(C)O)nc2)n1`
Response: 106

Query: # value lookup — system CYP3A4 (Homo sapiens), readout activity at 10 µM, item `CO[C@H]1CC[C@H](NC(=O)c2cc(C3CCOCC3)nc(-c3cncn3C)n2)CC1`
Response: 96

Query: Find activity at 10 µM (CYP3A4 (Homo sapiens)) for the entry `CO[C@H]1CC[C@H](NC(=O)c2nccc(-n3ccnc3)n2)CC1`
Response: 98

Query: Notebook entry, CYP3A4 (Homo sapiens) assay: activity at 10 µM of `CO[C@H]1CC[C@H](NC(=O)c2cc(C3(C)COC3)nc(-c3cncn3C)n2)CC1` = ?
Response: 106

Query: Test system CYP3A4 (Homo sapiens); read-out activity at 10 µM; what value for [2H]c1nc([2H])n(-c2nc(C)cc(C(=O)N[C@H]3CC[C@H](OCCOC)CC3)n2)c1[2H] [Comparator Compound A, reference compound] ?
Response: 97

***
Query: For the record `Cn1cncc1-c1ccnc(C(=O)N[C@H]2CC[C@H](O)CC2)n1` , what value of activity at 10 µM is listed for CYP3A4 (Homo sapiens)?
Response: 99

Query: What activity at 10 µM appears in the records for this compound with CYP3A4 (Homo sapiens)? `CC(C)(O)c1ccc(NC(=O)c2nccc(-n3ccnc3)n2)cn1`
Response: 100

Query: Which activity at 10 µM is reported with CYP3A4 (Homo sapiens) for this entry: `CO[C@H]1CC[C@H](NC(=O)c2cc(C3CCC(F)(F)CC3)nc(-c3cncn3C)n2)CC1` ?
Response: 97

---

The compounds listed here are annotated with their IC50.
Target: mouse CD38 (Mus musculus, UniProt P56528)
Sequence (P56528 1-304): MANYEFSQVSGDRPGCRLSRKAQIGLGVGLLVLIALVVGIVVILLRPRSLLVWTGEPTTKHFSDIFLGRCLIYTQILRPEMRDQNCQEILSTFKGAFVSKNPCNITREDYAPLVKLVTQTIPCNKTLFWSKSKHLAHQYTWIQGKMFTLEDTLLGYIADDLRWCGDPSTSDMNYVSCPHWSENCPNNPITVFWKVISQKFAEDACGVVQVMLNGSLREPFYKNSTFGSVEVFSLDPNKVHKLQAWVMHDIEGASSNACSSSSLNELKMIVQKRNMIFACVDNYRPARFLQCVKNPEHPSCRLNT
Assay: mouse recombinant CD38 enzyme assay (hydrolysis of NAD+)
Assay type: biochemical
Settings: read-out: mCD38 BioChem IC50
Output spec: scalar in nM, unitless text.

Record excerpt, results attached:
Query: I am curious: what IC50 value has been reported for O=C(Nc1cccnc1)c1cc(-n2ccnc2)ccn1 [Compound 1] ?
Response: 358

Query: Item Cn1cncc1-c1nccc(C(=O)N[C@H]2CC[C@H](C)CC2)n1 [Compound 85] has what recorded IC50?
Response: 2

Query: Requested read-out: IC50. Entry: Cn1cncc1-c1cc(C2CC2)nc(C(=O)Nc2ccc(C(F)F)nc2)n1 [Compound 206]
Response: 1.7

Query: What does the data say about its IC50? Entry: COCCOc1cc(C(=O)Nc2ccc(C(F)(F)F)nc2)nc(-n2ccnc2)c1 [Compound 245]
Response: 1

Next, consider the following compound.
Query: Consider the compound COc1cc(C(=O)Nc2ccc(C(F)F)nc2)nc(-c2cncn2C)c1 [Compound 225] and give its measured IC50.
Response: 3.8

---

biological target: CYP3A4 (Homo sapiens); construct: from tissue; host or cells: human liver microsomes (pooled in the time-dependent assay); assay: direct inhibition of CYP450 in human liver microsomes (midazolam and testosterone probes); format: in vitro ADME; conditions: midazolam probe, read-out: CYP3A4-M T0 estimated IC50
readout: IC50

Query: Notebook entry, CYP3A4 (Homo sapiens) assay: IC50 of `CO[C@H]1CC[C@H](NC(=O)c2nccc(-n3ccnc3)n2)CC1` = ?
Response: > 50 µM

Next:
Query: Look up IC50 with CYP3A4 (Homo sapiens) for this compound: `CO[C@H]1CC[C@H](NC(=O)c2cc(C3CCC(F)(F)CC3)nc(-c3cncn3C)n2)CC1`
Response: > 50 µM

Query: I'm curious: which IC50 was measured for `CC(C)(O)c1ccc(NC(=O)c2nccc(-n3ccnc3)n2)cn1` tested on CYP3A4 (Homo sapiens)?
Response: > 50 µM

Query: Short answer please: IC50, CYP3A4 (Homo sapiens), entry `CO[C@H]1CC[C@H](NC(=O)c2cc(C3CCOCC3)nc(-c3cncn3C)n2)CC1`
Response: > 50 µM

Query: Kindly state the measured IC50 obtained for `Cn1cncc1-c1ccnc(C(=O)N[C@H]2CC[C@H](O)CC2)n1` with CYP3A4 (Homo sapiens).
Response: > 50 µM

Query: Form: Entry = `CO[C@H]1CC[C@H](NC(=O)c2cc(C3(C)COC3)nc(-c3cncn3C)n2)CC1` | System = CYP3A4 (Homo sapiens) | IC50 = ____
Response: > 50 µM

Query: Give IC50 (CYP3A4 (Homo sapiens)) of the following compound: [2H]c1nc([2H])n(-c2nc(C)cc(C(=O)N[C@H]3CC[C@H](OCCOC)CC3)n2)c1[2H] [Comparator Compound A, reference compound]
Response: > 50 µM

Query: Kindly state the measured IC50 obtained for `Cn1cncc1-c1ccnc(C(=O)Nc2ccc(C(C)(C)O)nc2)n1` with CYP3A4 (Homo sapiens).
Response: > 50 µM

Sourced from patent US20230116972A1
